src = PubChem BioAssay (NCI)

Assay: NCI Yeast Anticancer Drug Screen. Data for the sgs1 mgt1 strain (AID 161);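 note: 0% = growth of cultures given vehicle only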
Settings: S. cerevisiae sgs1 mgt1 strain, at 50.0 µM (retest, dose inferred, filed as 5.0), active compounds read high
About 79,000 compounds went through this panel and 15% of them were active in at least one assay; those are over-represented in the sample as a whole.
PARAMETER: growth inhibition (%)
Respond with the bare value in %.

Query :: // growth inhibition lookup, key: `CCOC(=O)COc1cc(-c2ccccc2F)nc2cc3c(cc12)OCO3`
Result :: -9

Query :: Ok, now `O=C1c2ccccc2Cc2cccc(Cl)c21`
Result :: 13

Query :: Ok, now `COc1ccc2nc3cc([N+](=O)[O-])ccc3c(NNc3ccccc3)c2c1`
Result :: -13

Query :: Ok, now CC1(C)OCC(COC(c2ccccc2)(c2ccccc2)c2ccccc2)O1 (configuration not stated)
Result :: 2

Query :: Ok, now `N#CCc1cccc2ccccc12`
Result :: 4

Query :: Ok, now `Cc1nnc(N/N=C/c2ccc([N+](=O)[O-])o2)[nH]c1=O`
Result :: 75

Query :: Ok, now `Oc1ccc2c(c1)CCc1ccccc1-2`
Result :: 88

Query :: Ok, now CC1(C)OC2C(COC(c3ccccc3)(c3ccccc3)c3ccccc3)OC(c3c[nH]c4c(N)ncnc34)C2O1 (configuration not stated)
Result :: 99

Query :: Ok, now CCCCCCC1N=C(N)N=C(N)N1c1cccc(Cl)c1 (configuration not stated)
Result :: 55

Query :: Ok, now `CCOC(=O)C1=NN(c2ccccc2)C(=O)/C1=C\N1C(=O)/C(=C/c2cccc(O)c2)SC1=S`
Result :: 9

Query :: Ok, now `Cc1c2c(c(C)c3c[n+](C)ccc13)Oc1ccccc1O2`
Result :: 21

Query :: Ok, now `C(=N\Nc1ccc2ccccc2n1)/c1ccccn1`
Result :: 85

Query :: Ok, now `O=Nc1ccc2ccccc2c1O`
Result :: 37

Query :: Ok, now OC(c1cc(C23CC4CC(CC(C4)C2)C3)nc2c(Cl)cc(Cl)cc12)C1CCCCN1 (configuration not stated)
Result :: 99

Query :: Ok, now `CCCCCCCCCCCCCCCCCC1=NCCCN1CCO`
Result :: 8

Query :: Ok, now CN1CCc2cc3c(c4c2C1C(O)c1ccccc1-4)OCO3 (configuration not stated)
Result :: 7

----------
Test: NCI Yeast Anticancer Drug Screen. Data for the bub3 strain (AID 167)
Details: S. cerevisiae bub3 mutant strain, at 50.0 µM (retest, dose inferred, filed as 5.0), active compounds read high
The panel holds about 79,000 compounds, 15% with a hit somewhere; the sample as a whole holds those more often.
Examples of molecules with documented growth inhibition follow.
Respond with the bare value in %.

Query :: // growth inhibition lookup, key: `Cc1onc(-c2ccccc2)c1C(=O)N/N=C/c1cc(Cl)cc(Cl)c1O`
Result :: 63

Query :: Ok, now `CCCCCCCCCCCCCCCCCC1=NCCCN1CCO`
Result :: 7

Query :: Ok, now `CN=C(N)N/N=C(\C)c1ccc2c(c1)Cc1ccccc1-2`
Result :: 95

Query :: Ok, now `O=C(CCl)N(c1ccccc1)c1ccccc1`
Result :: 63

Query :: Ok, now `Cc1ccc(N2C(=O)C=CC2=O)cc1`
Result :: 99

Query :: Ok, now `O=C/C=C/c1ccc([N+](=O)[O-])cc1`
Result :: 99

Query :: Ok, now `c1ccc(-c2nc(N=C3N=c4ccccc4=N3)[nH]c2-c2ccccn2)nc1`
Result :: 80

Query :: Ok, now `N#Cc1c2ccccc2nc2ccccc12`
Result :: 12

Query :: Ok, now `Cc1cc(C(N)=O)cc(C)c1C(=O)OCCCl`
Result :: -2

----------
Assay: NCI Yeast Anticancer Drug Screen. Data for the mec2-1 strain (AID 157)
Settings: S. cerevisiae mec2-1 strain, at 50.0 µM
Compounds without any hit were thinned out: in the full panel of roughly 79,000, 15% have a hit. The source made the active and inactive calls. No stated cut-off is given here; in the data, active means growth inhibition above about 70%; inactive means the rest.
Allowed answers: active, inactive

Worked examples, 6 molecules total:
MOLECULE	QUALITATIVE LABEL
COc1ccc2nc3c4c(nccc4c2c1)-c1ncccc1C3=O	active
CCC[CH2][Sn]1([CH2]CCC)[O]C2C(CO)OC(n3ccc(N)nc3=O)C2[O]1 (centres undefined)	active
COc1ccc(NC(=O)/C(=C/N2C(=O)/C(=C/c3ccc(OC)c(OC)c3)NC2=S)C(C)=O)cc1	inactive
Oc1cc(Cl)ccc1Cc1ccc(Cl)cc1O	active
O=C(NNc1ccccc1)OCc1ccccc1	inactive
CN(C)c1ccc(/C=C/c2sc3ccc4ccccc4c3[n+]2C)cc1	active

Query :: In this assay, the call recorded for `O=[N+]([O-])c1ccc(N2CCN(Cc3ccccc3)CC2)c2c1no[n+]2[O-]` was what?
Result :: active

Query :: Ok, now `Cc1ccc(Nc2ccc(O)c3c2C(=O)c2c(O)ccc(Nc4ccc(C)cc4)c2C3=O)cc1`
Result :: inactive

Query :: Ok, now `O=C(/C=C/c1ccccc1)CCC1C(=O)c2ccccc2C1=O`
Result :: inactive

Query :: Ok, now `CC1(O)CCCCCC1`
Result :: inactive

Query :: Ok, now `Cc1ccc(/C=N/Nc2cc(C)c3cccc(C)c3n2)s1`
Result :: active

----------
Assay: NCI Yeast Anticancer Drug Screen. Data for the sgs1 mgt1 strain (AID 161);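 note: 0% = growth of cultures given vehicle only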
Details: S. cerevisiae sgs1 mgt1 strain, at 50.0 µM, active compounds read high
Compounds without any hit were thinned out: in the full panel of roughly 79,000, 15% have a hit.
Would you mind sorting the entries by growth inhibition according to these classes? label 0 (below 60%), label 1 (60% to below 90%), label 2 (90% or more)

Worked examples, 5 molecules total:
MOLECULE	QUALITATIVE LABEL
COc1ccc(OC)c(Cc2cnc3nc(N)nc(N)c3c2C)c1	label 0
C(=N\Nc1ccc2ccccc2n1)/c1ccccn1	label 2
CC(CSc1n[nH]c(=S)s1)c1ccccc1 (stereo not drawn)	label 2
CCOC(=O)C1=C(C(=O)c2ccccc2)C(c2cccc([N+](=O)[O-])c2)C(C(=O)c2ccccc2)=C(C(=O)OCC)N1	label 0
Oc1ccc(Cl)cc1C(c1cc(Cl)ccc1O)C(Cl)(Cl)Cl	label 2

Query :: Tag the class for `O=[N+]([O-])c1ccc([I+]c2ccccc2)cc1`
Result :: label 1

Query :: Ok, now COc1ccc2c(c1OC)OCC(CN(C)C)C2=O (stereo not drawn)
Result :: label 2

Query :: Ok, now `CCCOS(=O)(=O)c1ccccc1`
Result :: label 0

Query :: Ok, now `Cc1cc(C(N)=O)cc(C)c1C(=O)OCCCl`
Result :: label 0

Query :: Ok, now `CCNc1nnnn1CC`
Result :: label 0

Query :: Ok, now `C1=C(c2ccccc2)c2ccccc2C1`
Result :: label 0

Query :: Ok, now `Oc1cc(Cl)ccc1Cc1ccc(Cl)cc1O`
Result :: label 2

Query :: Ok, now `COc1ccc2nc3cc([N+](=O)[O-])ccc3c(NNc3ccccc3)c2c1`
Result :: label 0

Query :: Ok, now `NC(=Nc1nc(-c2ccccn2)cc2ccccc12)c1ccccn1`
Result :: label 1

Query :: Ok, now `NNc1cccc([N+](=O)[O-])c1`
Result :: label 0

Query :: Ok, now `O=C(Cc1ccccc1)C(F)(F)F`
Result :: label 0

Query :: Ok, now `CC1=CC[C@@H]2[C@@H](CC[C@@]2(C)O)C(C)(C)[C@H]1CC[C@@H]1[C@@]2(C)CC[C@@H](O)C(C)(C)O[C@@H]2CC[C@]1(C)O`
Result :: label 1

Query :: Ok, now `O=[N+]([O-])c1ccc(C(Br)c2ccc([N+](=O)[O-])cc2)cc1`
Result :: label 2

Query :: Ok, now `Cc1c2c(c(C)c3c[n+](C)ccc13)Oc1ccccc1O2`
Result :: label 1

Query :: Ok, now `CCN(CC)CCNc1ccc([N+](=O)[O-])c2sc3ccccc3c(=O)c12`
Result :: label 0

----------
Test: NCI Yeast Anticancer Drug Screen. Data for the sgs1 mgt1 strain (AID 161);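 note: 0% = growth of cultures given vehicle only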
Conditions: S. cerevisiae sgs1 mgt1 strain, at 50.0 µM, active compounds read high
Method: Growth inhibition of yeast strains with defined genetic alterations is measured as a screen for potential anti-cancer activity. Selected strains with alterations in DNA damage repair or cell cycle control were exposed to compounds and growth inhibition was measured relative to vehicle treated controls. The strain used in this assay is sgs1 mgt1
About 79,000 compounds went through this panel and 15% of them were active in at least one assay; those are over-represented in the sample as a whole. *1 amine or outer side, *2 acyl side, *3 side chain or, on linkers, in order; H or OH if unused. Where a SMILES comes first, the peptide text is derived from it. [ ]: non-standard residue; d: D form. The star is where a group is joined. X5 = CCC(=O)CC1CC(C)CC(C(=O)[*:2])N1[*:1]; X4 = CCCCCCCCC(C)C(=O)*; Aib = CC(C)(N)C(=O)O; X6 = CC(CN(C)CCO)N*
PARAMETER: growth inhibition (%)
Respond with the bare value in %.

# count of solved cases: 3
COMPOUND	UNIT ANNOTATION	growth inhibition
N=C1C=C(N)C(=O)c2ccccc21	%	93.8
C/C(=N\NC(=S)N(C)C)c1ccccn1	%	88.6
CC(=O)OCC(=O)c1ccc(-c2ccccc2)cc1	%	14.1

Query :: // growth inhibition lookup, key: OC(CSc1ccccc1)CN1CCN(c2ccc(Cl)cc2)CC1 (stereo not given)
Result :: 79

Query :: Ok, now CCC(C)C(N)C(=O)NC(CC(N)=O)C(=O)NC(CC(C)C)C(=O)NC(CCCCN)C(=O)NC(C)C(=O)NC(CC(C)C)C(=O)NC(C)C(=O)NC(C)C(=O)NC(CC(C)C)C(=O)NC(C)C(=O)NC(CCCCN)C(=O)NC(CCCCN)C(=O)NC(C(=O)NC(CC(C)C)C(N)=O)C(C)CC (stereo not given)
Result :: 93.8

Query :: Ok, now `S=C=Nc1ccc(N2CCOCC2)cc1`
Result :: 99.7

Query :: Ok, now `CCOc1cc(F)c([N+](=O)[O-])cc1[N+](=O)[O-]`
Result :: 51.5

Query :: Ok, now CCCCCCCCCCCCCCCC[N+]1(C)CCCC1c1cccnc1 (stereo not given)
Result :: 40.8

Query :: Ok, now N#CC1c2ccccc2C=CN1C(=O)CCCl (stereo not given)
Result :: 53.5

Query :: Ok, now CCCCCCCCC(C)C(=O)N1CCCC1C(=O)N1C(CC(=O)CC)CC(C)CC1C(=O)NC(C)C(=O)NC(C)(C)C(=O)NC(C)(C)C(=O)NC(C(=O)NC(C)C(=O)NC(C)(C)C(=O)NC(C)(C)C(=O)NC(C)CN(C)CCO)C(C)CC (stereo not given) (X4-P[X5]A[Aib][Aib]IA[Aib][Aib]-X6; configuration not given here)
Result :: 92.8

Query :: Ok, now CCC[CH2][Sn]1([CH2]CCC)[O]C2C(CO)OC(n3ccc(N)nc3=O)C2[O]1 (stereo not given)
Result :: 88.5

Query :: Ok, now `CCSc1nc2ccccc2o1`
Result :: 9.4

Query :: Ok, now `C[n+]1ccccc1C[n+]1ccccc1`
Result :: 66.8

Query :: Ok, now C=C1C(=O)C2=CC1CCC(=O)C1(C)CCC(OC(C)=O)C(C)(C)C1CC2O (stereo not given)
Result :: 78.7

Query :: Ok, now `CCCC[n+]1c(/C=C\c2c(OC)cc(OC)cc2OC)ccc2ccccc21`
Result :: 91.7

Query :: Ok, now `Cc1cc2nc(CC(=O)c3ccncc3)c(=O)[nH]c2cc1C`
Result :: 21.6

Query :: Ok, now `COc1ccc2nc3c4c(nccc4c2c1)-c1ncccc1C3=O`
Result :: 90.8

Query :: Ok, now `CC1(O)CCCCCC1`
Result :: 88.2

Query :: Ok, now `COc1ccc2nc3cc(Cl)ccc3c(NCCCCCN3CCCCC3)c2c1`
Result :: 47.1

Query :: Ok, now `c1ccc2sc(SSN3CC4CCC(CC4)C3)nc2c1`
Result :: 86.4
